From: patent US20200247894A1

Target: T1, human IL2Rγ (endogenously expressed on cells) (human, UniProt P31785 23-369)
T1 sequence (looked up): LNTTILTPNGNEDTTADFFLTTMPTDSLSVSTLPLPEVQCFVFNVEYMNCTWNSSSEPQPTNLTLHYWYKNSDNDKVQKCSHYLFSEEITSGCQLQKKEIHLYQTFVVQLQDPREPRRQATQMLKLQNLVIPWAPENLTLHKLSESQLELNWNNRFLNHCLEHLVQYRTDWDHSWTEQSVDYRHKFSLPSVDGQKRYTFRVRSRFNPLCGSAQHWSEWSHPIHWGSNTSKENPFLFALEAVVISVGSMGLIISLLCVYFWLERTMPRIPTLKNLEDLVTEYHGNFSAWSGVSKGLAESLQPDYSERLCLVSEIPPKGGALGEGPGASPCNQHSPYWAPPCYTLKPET
Test: cell-based or functional assay
measured-endpoint: IC50; IL-15 60 pM; NK92/hIL7R/STAT3-luc

Fill blank: measured IC50; IL-15 60 pM; NK92/hIL7R/STAT3-luc of the binder H4H12886P (antibody, human IgG4 S228P, kappa, V domains shown, human IgG4) VH: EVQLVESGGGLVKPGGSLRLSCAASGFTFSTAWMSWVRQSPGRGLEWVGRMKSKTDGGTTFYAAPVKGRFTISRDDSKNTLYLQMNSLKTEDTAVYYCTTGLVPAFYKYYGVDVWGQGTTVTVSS VL: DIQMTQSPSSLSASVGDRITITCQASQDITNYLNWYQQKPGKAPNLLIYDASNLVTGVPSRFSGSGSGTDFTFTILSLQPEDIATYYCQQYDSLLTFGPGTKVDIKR is ____. > 1e-07 M
